# Test system: human erythrocytes
# EXPERIMENT_NOTES: Hemolysis assay
# Format: cell-based
Square brackets hold non-standard residues; d marks the D form. Peptide text beside a SMILES is read from it. Nspe = C[C@H](NCC(=O)O)c1ccccc1; Nphe = O=C(O)CNCc1ccccc1; Nlys = NCCCCNCC(=O)O
Assignment: determine reported HD50 for the given compounds.

Some entries whose results are on file:
[
  {
    "COMPOUND": "C[C@@H](c1ccccc1)N(CC(N)=O)C(=O)CN(Cc1ccccc1)C(=O)CN(CCCCN)C(=O)CN(Cc1ccccc1)C(=O)CN(Cc1ccccc1)C(=O)CN(CCCCN)C(=O)CN(Cc1ccccc1)C(=O)CN(Cc1ccccc1)C(=O)CN(CCCCN)C(=O)CN(Cc1ccccc1)C(=O)CN(Cc1ccccc1)C(=O)CNCCCCN",
    "OBSERVED_VALUE": "> 200 µM"
  },
  {
    "COMPOUND": "C[C@@H](c1ccccc1)N(CC(N)=O)C(=O)CN(C(=O)CN(CCCCN)C(=O)CN(C(=O)CN(C(=O)CNCCCCN)[C@@H](C)c1ccccc1)[C@@H](C)c1ccccc1)[C@@H](C)c1ccccc1 [16 mer, H-(Nlys-Nspe-Nspe)2-NH2] (H-[Nlys][Nspe][Nspe][Nlys][Nspe][Nspe]-NH2)",
    "OBSERVED_VALUE": ">200/>200 μM"
  },
  {
    "COMPOUND": "C[C@@H](c1ccccc1)N(CC(N)=O)C(=O)CN(C(=O)CN(CCCCN)C(=O)CN(C(=O)CN(C(=O)CN(CCCCN)C(=O)[C@@H]1CCCN1C(=O)CN(C(=O)CN(CCCCN)C(=O)CN(C(=O)CN(C(=O)CNCCCCN)[C@@H](C)c1ccccc1)[C@@H](C)c1ccccc1)[C@@H](C)c1ccccc1)[C@@H](C)c1ccccc1)[C@@H](C)c1ccccc1)[C@@H](C)c1ccccc1 [1-Pro6] (H-[Nlys][Nspe][Nspe][Nlys][Nspe]P[Nlys][Nspe][Nspe][Nlys][Nspe][Nspe]-NH2)",
    "OBSERVED_VALUE": "> 200 µM"
  },
  {
    "COMPOUND": "C[C@@H](c1ccccc1)N(CC(N)=O)C(=O)CN(CCCCN)C(=O)CN(CCCCN)C(=O)CN(C(=O)CN(C(=O)CN(CCCCN)C(=O)CN(C(=O)CN(CCCCN)C(=O)CN(CCCCN)C(=O)CN(C(=O)CN(C(=O)CNCCCCN)[C@@H](C)c1ccccc1)[C@@H](C)c1ccccc1)[C@@H](C)c1ccccc1)[C@@H](C)c1ccccc1)[C@@H](C)c1ccccc1 [1-Nlys5,11, H-(Nlys-Nspe-Nspe-Nlys-Nlys-Nspe)2-NH2] (H-[Nlys][Nspe][Nspe][Nlys][Nlys][Nspe][Nlys][Nspe][Nspe][Nlys][Nlys][Nspe]-NH2)",
    "OBSERVED_VALUE": ">200/>200 μM"
  },
  {
    "COMPOUND": "NCCCCNCC(=O)N(CC(=O)N(CC(=O)N(CCCCN)CC(=O)N(CC(=O)N(CC(=O)N(CCCCN)CC(=O)N(CC(=O)N(CC(=O)N(CCCCN)CC(=O)N(CC(=O)N(CC(N)=O)Cc1ccccc1)Cc1ccccc1)Cc1ccccc1)Cc1ccccc1)Cc1ccccc1)Cc1ccccc1)Cc1ccccc1)Cc1ccccc1 [1achiral, H-(Nlys-Npm-Npm)4-NH2] (H-[Nlys][Nphe][Nphe][Nlys][Nphe][Nphe][Nlys][Nphe][Nphe][Nlys][Nphe][Nphe]-NH2)",
    "OBSERVED_VALUE": "> 200 µM"
  }
]

# input for lookup
Request: HD50 lookup needed for C[C@@H](c1ccc2ccccc2c1)N(CC(N)=O)C(=O)CN(C(=O)CN(CCCCN)C(=O)CN(C(=O)CN(C(=O)CN(CCCCN)C(=O)CN(C(=O)CN(C(=O)CN(CCCCN)C(=O)CN(C(=O)CN(C(=O)CNCCCCN)[C@@H](C)c1ccccc1)[C@@H](C)c1ccccc1)[C@@H](C)c1ccccc1)[C@@H](C)c1ccc2ccccc2c1)[C@@H](C)c1ccccc1)[C@@H](C)c1ccccc1)[C@@H](C)c1ccccc1 , thanks.
Response: 27 µM
